The origin of these recorded values is patent US12551573B2.

tested on: human PCSK9 locus; assay: Secreted PCSK9 by ELISA (normalized to total cell count) in Huh7 cells transfected with mRNA and gRNA; format: cell-based; settings: 25 ng mRNA:12.5 ng gRNA; paired with LTRP5-ADD-ZIM3 mRNA; Huh7 cells; 6 days post-transfection; normalized to total cell count
Listed here are substances together with their documented Secreted PCSK9.

Before answering, review these 4 worked examples.
[
  {
    "substance": "GUGCUCGGGUGCUUCGGCCA (listed as RNA, chemistry not given here) [spacer 6.5, Exon 1]",
    "Secreted PCSK9": "76.37 ng/mL"
  },
  {
    "substance": "TG-06-343 (guide CCCCAUGUAAGAGAGGAAGU; listed as RNA, chemistry not given here)",
    "Secreted PCSK9": "75.55 ng/mL"
  },
  {
    "substance": "UUUUACACACCAUGUUCAAG (listed as RNA, chemistry not given here) [spacer 6.129, Promoter]",
    "Secreted PCSK9": "90.82 ng/mL"
  },
  {
    "substance": "TG-06-344 (guide CAGUUUCUGCCUCGCCGCGG; listed as RNA, chemistry not given here)",
    "Secreted PCSK9": "76.43 ng/mL"
  }
]

Supply recorded Secreted PCSK9 for TG-06-351 (guide UUAUGACACAGAACUCAUGC; listed as RNA, chemistry not given here) here.
62.93 ng/mL

Give the value of Secreted PCSK9 reported for the following: GUGGGAAGGUUCGCGGGGUU (listed as RNA, chemistry not given here) [spacer 6.168, Intron 1]
50.96 ng/mL

Please look at this substance and report its Secreted PCSK9: GGGUCUGAGCCUGGAGGAGU (listed as RNA, chemistry not given here) [spacer 6.157, Exon 1]
32.4 ng/mL

Fill in reported Secreted PCSK9 for this entry: TG-06-349 (guide CUGUGCCUGGUGCAGUUCCC; listed as RNA, chemistry not given here)
87.55 ng/mL

In one line, give reported Secreted PCSK9 of the entry UCCUCCUGCCUGGUACACAA (listed as RNA, chemistry not given here) [spacer 6.127, Promoter] .
49.1 ng/mL

Specify Secreted PCSK9 for AGGGUGUGGGUGCUUGACGC (listed as RNA, chemistry not given here) [spacer 6.154, Promoter] and stop.
24.48 ng/mL

Supply reported Secreted PCSK9 belonging to this substance: GCGCGCCCCUUCACGCGCCC (listed as RNA, chemistry not given here) [spacer 6.159, Exon 1]
80.84 ng/mL

Quote Secreted PCSK9 reported for GAAUCAAUCCUACUGUGGAC (listed as RNA, chemistry not given here) [spacer 6.143, Promoter] please.
22.33 ng/mL

Tell us which Secreted PCSK9 value is on record for CCUUUGUUUCUUCCCAGUAU (listed as RNA, chemistry not given here) [spacer 6.122, Promoter]
86.06 ng/mL

Supply recorded Secreted PCSK9 for GGAGCAGGGCGCGUGAAGGG (listed as RNA, chemistry not given here) [spacer 6.158, Exon 1] here.
31.72 ng/mL

====

Entries and their Average percent reduction in PCSK9 secretion
tested on: human PCSK9 locus; test: Secreted PCSK9 by ELISA (normalized to total cell count) in Huh7 cells transfected with mRNA and gRNA; type: cell-based; settings: averaged from the two doses; paired with LTRP5-ADD-ZIM3 mRNA; Huh7 cells; 6 days post-transfection
# number then unit; no other words

Past entries and their recorded results:
[
  {
    "substance": "GUGGGCAGCGAGGAGUCCAC (listed as RNA, chemistry not given here) [spacer 6.144, Promoter]",
    "readout value": "65.41%"
  },
  {
    "substance": "TG-06-344 (guide CAGUUUCUGCCUCGCCGCGG; listed as RNA, chemistry not given here)",
    "readout value": "3.64%"
  },
  {
    "substance": "CCUUUUCAUCCUCCUGCCUG (listed as RNA, chemistry not given here) [spacer 6.126, Promoter]",
    "readout value": "54.27%"
  },
  {
    "substance": "CUCUGCGCGUAAUCUGACGC (listed as RNA, chemistry not given here) [spacer 6.151, Promoter]",
    "readout value": "20.91%"
  },
  {
    "substance": "TG-06-251 (guide CUCCAGGCCCUCCACCCUCC; listed as RNA, chemistry not given here)",
    "readout value": "46.32%"
  },
  {
    "substance": "TG-06-350 (guide GUGUCAUAAAGAAAUUGCCU; listed as RNA, chemistry not given here)",
    "readout value": "9.07%"
  },
  {
    "substance": "TG-06-249 (guide AAACCAAAUCGGAACCCACU; listed as RNA, chemistry not given here)",
    "readout value": "10.89%"
  },
  {
    "substance": "CCUUUGUUUCUUCCCAGUAU (listed as RNA, chemistry not given here) [spacer 6.122, Promoter]",
    "readout value": "8.63%"
  },
  {
    "substance": "GGGUCUGAGCCUGGAGGAGU (listed as RNA, chemistry not given here) [spacer 6.157, Exon 1]",
    "readout value": "69.78%"
  },
  {
    "substance": "AGAAAGAGCAAGCCUCAUGU (listed as RNA, chemistry not given here) [spacer 6.125, Promoter]",
    "readout value": "52.49%"
  }
]

Supply Average percent reduction in PCSK9 secretion value. Item: TG-06-349 (guide CUGUGCCUGGUGCAGUUCCC; listed as RNA, chemistry not given here)
16.95%

Let me know recorded Average percent reduction in PCSK9 secretion for GCAGCGACGUCGAGGCGCUC (listed as RNA, chemistry not given here) [spacer 6.155, Exon 1] , thanks.
42.55%

Supply reported Average percent reduction in PCSK9 secretion belonging to this substance: CAGUACGUUCCAGGCAUUCA (listed as RNA, chemistry not given here) [spacer 6.171, Intron 1]
28.88%

State its Average percent reduction in PCSK9 secretion: CUCGGAAUCUGCUGUGCAUC (listed as RNA, chemistry not given here) [spacer 6.120, Promoter]
53.31%

Output Average percent reduction in PCSK9 secretion of CACUGAAUAGCGCAGCCGCA (listed as RNA, chemistry not given here) [spacer 6.167, Intron 1]
29.22%

Return reported Average percent reduction in PCSK9 secretion. Input substance: GAAGUCUCACUGGUCAGCAG (listed as RNA, chemistry not given here) [spacer 6.146, Promoter]
60.9%

Note down Average percent reduction in PCSK9 secretion recorded for AGGAGCAGCUAGUUGGUAAG (listed as RNA, chemistry not given here) [spacer 6.139, Promoter]
73.01%

Supply reported Average percent reduction in PCSK9 secretion belonging to this substance: GCCGGGCCCACCUUUUCAGU (listed as RNA, chemistry not given here) [spacer 6.148, Promoter]
25.15%

Give me measured Average percent reduction in PCSK9 secretion, please, for this substance: ACUUUGUUUGCAAAGACCUC (listed as RNA, chemistry not given here) [spacer 6.117, Promoter]
10.73%

Report measured Average percent reduction in PCSK9 secretion; entry is AGGGUGUGGGUGCUUGACGC (listed as RNA, chemistry not given here) [spacer 6.154, Promoter]
78.64%

Assign Average percent reduction in PCSK9 secretion to the following record: AAACUUAGCCUGGACCCCCU (listed as RNA, chemistry not given here) [spacer 6.140, Promoter]
20.45%

State its Average percent reduction in PCSK9 secretion: AGCCCAGUUAGGAUUUGGGA (listed as RNA, chemistry not given here) [spacer 6.149, Promoter]
60.23%
